target: Recombinant RbAp48 (human, UniProt Q09028 1-425); assay: ITC; MTA1 peptide (250 uM) titrated into RbAp48 (25 uM); 25 C; 20 mM Tris pH 7.5, 150 mM NaCl; single-site model; conditions: both partners purified
Sequence (Q09028 whole entry): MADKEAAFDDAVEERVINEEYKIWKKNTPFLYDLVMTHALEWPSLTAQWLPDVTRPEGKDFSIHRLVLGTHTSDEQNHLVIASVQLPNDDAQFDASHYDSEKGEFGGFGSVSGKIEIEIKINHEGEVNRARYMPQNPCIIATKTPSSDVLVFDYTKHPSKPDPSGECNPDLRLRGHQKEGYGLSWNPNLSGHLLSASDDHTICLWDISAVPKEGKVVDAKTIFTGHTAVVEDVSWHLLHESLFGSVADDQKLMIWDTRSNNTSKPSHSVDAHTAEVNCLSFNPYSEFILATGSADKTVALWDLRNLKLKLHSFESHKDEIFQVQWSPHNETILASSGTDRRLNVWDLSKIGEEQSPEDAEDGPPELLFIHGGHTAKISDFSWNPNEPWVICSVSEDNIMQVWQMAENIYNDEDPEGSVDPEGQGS
test readout: pKd
Give bare numbers, as −log10 of the molar value.

For the binder Ac-KLLSSSETKRAARRPYKPIALRQSQA-NH2 (peptide, UniProt Q13330 670-695, looked up) [MTA1-(670-695) peptide] , give its measured pKd value.
7.30

Values from paper PMC4139204
